# test summary: Cytotoxicity against african green monkey Vero cells assessed as drug concentration at which no cellular alteration was microscopically detected
# Type: cell-based
# experimental context: chlorocebus sabaeus, read-out: MTC
# MNTC per entry

compound | MNTC
COc1c2c3c(c4c1OCO4)-c1ccccc1[C@H](O)[C@H]3N(C)CC2 | 62 µM
COc1cc2c(cc1O)C[C@H]1c3c(cc(OC)c(O)c3-2)CCN1C.Cl [ISOBOLDINE HYDROCHLORIDE] | 125 µM
COc1ccc2c(c1)[C@H](O)[C@@H]1c3c(cc4c(c3-2)OCO4)CCN1C | 5 µM
COc1cc2c(cc1OC)-c1c(OC)c(OC)cc3c1[C@H](C2)N(C)CC3.O=C(O)/C=C/C(=O)O [GLAUCINE FUMARATE] | 62 µM
COc1cc2c(cc1O)C[C@H]1c3c(cc(OC)c(OC)c3-2)CCN1C | 125 µM
